# Test system: AMPK
# protocol-text: Measurement of AMPK activity by Western blot in C2C12 cells
# Type: cell-based
# Set-up: key: fold increase in threonine-172 phosphorylation
# measurement-setup: 10 μM for 50 minutes, no superscript: Western blot of serine-79 and threonine-172 phosphorylation
Below is a list of entries, each paired with its recorded AMPK activity (degree of phosphorylation of serine-79 and threonine-172) value.
Write no unit; give the number alone.

Reference set (2 entries):
compound="COc1cccc(CNc2nc(C(OC)c3ccccc3)nc3ccccc23)c1 (stereo not shown)" observed=2.1
compound=COc1cc(CNc2nc(C(C)C)nc3ccccc23)cc(OC)c1OC observed=2.2

Consider now this further compound.
Q) Would you mind telling me what AMPK activity (degree of phosphorylation of serine-79 and threonine-172) value was observed for `COc1ccc(CNc2nc(N3CCCCC3)nc3ccccc23)cc1OC` ?
A) 1.0
